- Target entity: T1, IL-12 p40 C177S variant (human, UniProt P29460 23-328)
- T1 sequence: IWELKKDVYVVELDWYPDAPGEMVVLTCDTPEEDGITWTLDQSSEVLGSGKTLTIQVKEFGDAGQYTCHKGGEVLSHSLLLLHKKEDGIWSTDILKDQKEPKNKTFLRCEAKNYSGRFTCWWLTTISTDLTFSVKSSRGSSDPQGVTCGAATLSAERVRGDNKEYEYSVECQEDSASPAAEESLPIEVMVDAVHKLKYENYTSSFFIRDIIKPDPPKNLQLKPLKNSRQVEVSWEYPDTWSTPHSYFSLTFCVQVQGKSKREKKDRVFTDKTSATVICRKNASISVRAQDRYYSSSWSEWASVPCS
- Procedure text: BLI (Octet), p35 C74 variant against p40 C177S

Binder: IL-12 p35 C74K variant (other) RNLPVATPDPGMFPCLHHSQNLLRAVSNMLQKARQTLEFYPCTSEEIDHEDITKDKTSTVEACLPLELTKNESKLNSRETSFITNGSCLASRKTSFMMALCLSSIYEDLKMYQVEFKTMNAKLLMDPKRQIFLDQNMLAVIDELMQALNFNSETVPQKSSLEEPDFYKTKIKLCILLHAFRIRAVTIDRVMSYLNAS
kon: 25900 M⁻¹ s⁻¹
